# System Under Test: Melanocortin receptor 4 (Homo sapiens)
# Sequence (P32245 whole entry): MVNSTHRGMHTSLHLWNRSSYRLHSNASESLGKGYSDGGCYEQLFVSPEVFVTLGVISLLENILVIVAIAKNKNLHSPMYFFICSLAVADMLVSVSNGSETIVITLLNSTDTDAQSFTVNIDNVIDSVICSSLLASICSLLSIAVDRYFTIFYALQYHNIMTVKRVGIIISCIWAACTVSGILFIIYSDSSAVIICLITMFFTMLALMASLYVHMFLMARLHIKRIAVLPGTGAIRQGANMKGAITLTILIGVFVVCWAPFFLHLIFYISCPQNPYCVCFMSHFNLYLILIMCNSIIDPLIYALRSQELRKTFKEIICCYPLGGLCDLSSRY
# Protocol Text: Effective concentration at human melanocortin 4 receptor in cAMP release assay
Measured Metric: EC50 (nM)

Molecule	Scale Unit	EC50
COc1ccc(N2N=C(Sc3ccc(Cl)cc3)CC(CC[C@@H](C)NC(=O)[C@H]3CNCC[C@@H]3c3ccc(F)cc3)C2=O)cc1 (stereo in doubt; 26)	nM	40
COc1ccc(-n2nc(Sc3ccc(Cl)cc3)cc(CC[C@@H](C)NC(=O)[C@H]3CCNC[C@@H]3c3ccc(F)cc3)c2=O)cc1	nM	110
COc1ccc(-n2nc(Sc3ccc(Cl)cc3)cc(CC[C@@H](C)NC(=O)[C@H]3CNCC[C@@H]3c3ccc(F)cc3)c2=O)cc1	nM	61
COc1ccc(-n2nc(Sc3ccc(Cl)cc3)cc(CC[C@@H](C)NC(=O)[C@H]3CCNC[C@@H]3c3ccc(Cl)cc3)c2=O)cc1	nM	150
COc1ccc(-n2nc(Sc3ccc(Cl)cc3)cc(CC[C@@H](C)NC(=O)[C@@H]3CNCCN3c3ccc(F)cc3)c2=O)cc1	nM	1100
COc1ccc(N2N=C(Sc3ccc(Cl)cc3)CC(CC[C@@H](C)NC(=O)[C@@H]3CCNC[C@H]3c3ccc(F)cc3)C2=O)cc1 (stereo in doubt; 64)	nM	2000
COc1ccc(-n2nc(Sc3ccc(Cl)cc3)cc(CC[C@@H](C)NC(=O)[C@H]3CNCC[C@@H]3c3ccccc3F)c2=O)cc1	nM	550
COc1ccc(-n2nc(Sc3ccc(Cl)cc3)cc(CC[C@@H](C)NC(=O)[C@H]3CCNC[C@@H]3c3ccc(C(F)(F)F)cc3)c2=O)cc1	nM	710

P: COc1ccc(N2N=C(Sc3ccc(Cl)cc3)CC(CC[C@@H](C)NC(=O)C3CNC[C@H]3c3ccc(F)cc3)C2=O)cc1 (single isomer, unassigned; 69)
Q: COc1ccc(-n2nc(Sc3ccc(Cl)cc3)cc(CC[C@@H](C)NC(=O)[C@H]3CNC[C@@H]3c3ccc(Cl)cc3)c2=O)cc1
Q: Could you kindly indicate whether P or Q has the higher EC50 value? Your answer should be the label of the entry you select.
Ans: P

a: COc1ccc(-n2nc(Sc3ccc(Cl)cc3)cc(CC[C@@H](C)NC(=O)[C@H]3CNCC[C@@H]3c3ccc(Cl)cc3)c2=O)cc1
b: COc1ccc([C@H]2CNC[C@@H]2C(=O)N[C@H](C)CCc2cc(Sc3ccc(Cl)cc3)nn(-c3ccc(OC)cc3)c2=O)cc1
Q: Between a and b , which one shows the smaller EC50 number? Your answer should be the label of the entry you select.
Ans: a
(a: 210 nM, b: 430 nM)

----------
# System Under Test: Melanocortin receptor 4 (Homo sapiens)
# Protocol Text: Maximum percentage of cAMP accumulation compared to alpha-MSH at human melanocortin 4 receptor at 10 uM
# Format: functional
Measured Metric: Max (%)

Below: 3 compounds and their reported Max.
Compound	Measured
COc1ccc(-n2nc(Sc3ccc(Cl)cc3)cc(CC[C@@H](C)NC(=O)[C@H]3CNCC[C@@H]3c3ccc(C)cc3)c2=O)cc1	47
COc1ccc(-n2nc(Sc3ccc(Cl)cc3)cc(CC[C@H](C)NC(=O)[C@H]3CNCCN3c3ccc(F)cc3)c2=O)cc1	9
COc1ccc(-n2nc(Sc3ccc(Cl)cc3)cc(CC[C@@H](C)NC[C@@H]3CNCC[C@H]3c3ccc(F)cc3)c2=O)cc1	9

I: COc1ccc(-n2nc(Sc3ccc(Cl)cc3)cc(CC[C@@H](C)NC(=O)[C@H]3CNCC[C@@H]3c3cccc(F)c3)c2=O)cc1
II: COc1ccc(-n2nc(Sc3ccc(Cl)cc3)cc(CC[C@@H](C)NC(=O)[C@H]3CNCC[C@@H]3c3ccc(Cl)cc3Cl)c2=O)cc1
III: COc1ccc(-n2nc(Sc3ccc(Cl)cc3)cc(CC[C@@H](C)NC(=O)[C@H]3CNCC[C@@H]3c3ccc4ccccc4c3)c2=O)cc1
IV: COc1ccc(-n2nc(Sc3ccc(Cl)cc3)cc(CC[C@@H](C)NC(=O)[C@H]3CCNC[C@@H]3Cc3ccc(F)cc3)c2=O)cc1
Q: Hey, quick one: sort these by Max, largest value first please. Give the labels in the order specified.
Ans: IV, I, III, II

I: COc1ccc(-n2nc(Sc3ccc(Cl)cc3)cc(CC[C@@H](C)NC(=O)[C@H]3CNCC[C@@H]3c3ccc(C(F)(F)F)cc3)c2=O)cc1
II: COc1ccc(-n2nc(Sc3ccc(Cl)cc3)cc(CC[C@@H](C)NC(=O)[C@H]3CCNC[C@@H]3Cc3ccccc3)c2=O)cc1
Q: Between I and II , which one shows the smaller Max number? Your answer should be the label of the entry you select.
Ans: I

1: COc1ccc(-n2nc(Sc3ccc(Cl)cc3)cc(CC[C@H](C)NC(=O)[C@@H]3CNCCN3c3ccc(F)cc3)c2=O)cc1
2: COc1ccc(N2N=C(Sc3ccc(Cl)cc3)CC(CC[C@@H](C)NC(=O)[C@@H]3CNCC[C@H]3c3ccc(F)cc3)C2=O)cc1 (stereo in doubt; 60)
3: COc1ccc(-n2nc(Sc3ccc(Cl)cc3)cc(CC[C@@H](C)NC(=O)[C@H]3CNCC[C@@H]3c3ccsc3)c2=O)cc1
4: COc1ccc(-n2nc(Sc3ccc(Cl)cc3)cc(CC[C@@H](C)NC(=O)[C@H]3CNCCN3c3ccc(F)cc3)c2=O)cc1
Q: Hey, quick one: sort these by Max, largest value first please. Give the labels in the order specified.
Ans: 3, 1, 2, 4
(3: 82%, 1: 38%, 2: 20%, 4: 6%)

A: COc1ccc(-n2nc(Sc3ccc(Cl)cc3)cc(CC[C@@H](C)NC(=O)[C@H]3CNCC[C@@H]3c3cccc(C(F)(F)F)c3)c2=O)cc1
B: COc1ccc(-n2nc(Sc3ccc(Cl)cc3)cc(CC[C@@H](C)NC(=O)[C@H]3CNCC[C@@H]3c3cccc4ccccc34)c2=O)cc1
Q: Between A and B , which one shows the smaller Max number? Your answer should be the label of the entry you select.
Ans: B
(B: 22%, A: 40%)

----------
# System Under Test: UniProt P32245
# Protocol Text: Maximum percentage of cAMP accumulation relative to alpha-MSH at human melanocortin 4 receptor at 10 uM
# Type: functional
Measured Metric: Max (%)

Below: 2 molecules and their reported Max.
Molecule	Scale Unit	Max
COc1ccc(-n2nc(Sc3ccc(Cl)cc3)cc(CC[C@@H](C)NC(=O)[C@H]3CCNC[C@@H]3c3ccccc3)c2=O)cc1	%	85
COc1ccc(-n2nc(Sc3ccc(Cl)cc3)cc(CC[C@@H](C)NC(=O)[C@H]3CNCC[C@@H]3c3ccccc3F)c2=O)cc1	%	58

I: COc1ccc(N2N=C(Sc3ccc(Cl)cc3)CC(CC[C@@H](C)NC(=O)[C@@H]3CNCC[C@H]3c3ccc(F)cc3)C2=O)cc1 (stereo in doubt; 61)
II: COc1ccc(-n2nc(Sc3ccc(Cl)cc3)cc(CC[C@@H](C)NC(=O)[C@H]3CNC[C@@H]3c3ccc(F)cc3)c2=O)cc1
Q: Between I and II , which one shows the smaller Max number? Your answer should be the label of the entry you select.
Ans: I

----------
# System Under Test: Melanocortin receptor 3 (Homo sapiens, UniProt P41968)
# Sequence (P41968 whole entry): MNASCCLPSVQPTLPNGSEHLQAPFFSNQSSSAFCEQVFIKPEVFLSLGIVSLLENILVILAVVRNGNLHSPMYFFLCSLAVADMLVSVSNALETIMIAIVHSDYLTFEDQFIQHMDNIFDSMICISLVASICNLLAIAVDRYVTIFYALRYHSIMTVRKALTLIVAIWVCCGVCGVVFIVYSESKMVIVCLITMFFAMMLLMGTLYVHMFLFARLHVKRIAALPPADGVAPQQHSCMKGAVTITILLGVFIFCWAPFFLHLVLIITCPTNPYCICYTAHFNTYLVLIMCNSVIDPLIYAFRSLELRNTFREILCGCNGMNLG
# Protocol Text: Maximum percentage of cAMP accumulation compared to alpha-MSH at human melanocortin 3 receptor at 10 uM
# Format: functional
Measured Metric: Max (%)

Below: 2 compounds and their reported Max.
Compound	Measured Metric	Measured
COc1ccc(N2N=C(Sc3ccc(Cl)cc3)CC(CC[C@@H](C)NC(=O)[C@H]3CNCC[C@@H]3c3ccc(F)cc3)C2=O)cc1 (stereo in doubt; 26)	Max	5
COc1ccc(-n2nc(Sc3ccc(Cl)cc3)cc(CC[C@@H](C)NC(=O)[C@H]3CNCC[C@@H]3c3ccc(F)cc3)c2=O)cc1	Max	6

1: COc1ccc(-n2nc(Sc3ccc(Cl)cc3)cc(CC[C@@H](C)NC(=O)[C@H]3CCNC[C@@H]3c3ccc(F)cc3)c2=O)cc1
2: COc1ccc(N2N=C(Sc3ccc(Cl)cc3)CC(CC[C@@H](C)NC(=O)C3CNC[C@@H]3c3ccc(F)cc3)C2=O)cc1 (single isomer, unassigned; 67)
Q: Between 1 and 2 , which one shows the smaller Max number? Your answer should be the label of the entry you select.
Ans: 2

----------
# System Under Test: UniProt P33032
# Sequence (P33032 whole entry): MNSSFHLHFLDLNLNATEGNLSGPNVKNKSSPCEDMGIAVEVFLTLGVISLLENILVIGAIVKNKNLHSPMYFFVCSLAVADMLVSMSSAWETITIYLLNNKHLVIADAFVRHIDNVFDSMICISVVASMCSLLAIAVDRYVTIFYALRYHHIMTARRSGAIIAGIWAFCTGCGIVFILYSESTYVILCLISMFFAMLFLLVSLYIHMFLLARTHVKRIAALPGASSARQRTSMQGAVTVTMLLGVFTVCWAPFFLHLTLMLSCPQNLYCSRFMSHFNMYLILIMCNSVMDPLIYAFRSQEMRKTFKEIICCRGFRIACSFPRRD
# Protocol Text: Maximum percentage of cAMP accumulation compared to alpha-MSH at human melanocortin 5 receptor at 10 uM
# Type: functional
Measured Metric: Max (%)

Compound	Max, %
COc1ccc(N2N=C(Sc3ccc(Cl)cc3)CC(CC[C@@H](C)NC(=O)[C@H]3CCNC[C@@H]3c3ccc(F)cc3)C2=O)cc1 (stereo in doubt; 63)	7
COc1ccc(-n2nc(Sc3ccc(Cl)cc3)cc(CC[C@@H](C)NC(=O)[C@H]3CNCC[C@@H]3c3ccc(F)cc3)c2=O)cc1	7
COc1ccc(N2N=C(Sc3ccc(Cl)cc3)CC(CC[C@@H](C)NC(=O)C3CNC[C@@H]3c3ccc(F)cc3)C2=O)cc1 (single isomer, unassigned; 67)	5

P: COc1ccc(-n2nc(Sc3ccc(Cl)cc3)cc(CC[C@@H](C)NC(=O)[C@H]3CNC[C@@H]3c3ccc(F)cc3)c2=O)cc1
Q: COc1ccc(-n2nc(Sc3ccc(Cl)cc3)cc(CC[C@@H](C)NC(=O)[C@H]3CCNC[C@@H]3c3ccc(F)cc3)c2=O)cc1
Q: Between P and Q , which one shows the smaller Max number? Your answer should be the label of the entry you select.
Ans: Q
